Source listed as PubChem BioAssay.

test: VP16 transactivation reporter inhibitors, counter-screen for LRH-1 inverse agonist project, cell-based, luminescence, high throughput (AID 651615); settings: Gal4-VP16 luciferase reporter cells, at 3.6 µM, active compounds read high
Measure: inhibition (%)
Answer with a number only, understood to be in %.

Check out these entries, answers already filled in.
{"Compound": "CCOc1ccc(-n2c(-c3ccc(Br)cc3)c[n+]3c2CCCCC3)cc1", "Measure": "inhibition", "Reported measurement": 67.5}
{"Compound": "CCC1(O)C(=O)OCc2c1cc1n(c2=O)Cc2cc3cc(O)ccc3nc2-1 (stereo not given)", "Measure": "inhibition", "Reported measurement": 83.8}
{"Compound": "CCOc1ccc(-n2c(-c3ccc(OC)cc3)c[n+]3c2CCCCC3)cc1", "Measure": "inhibition", "Reported measurement": 90.3}
{"Compound": "CCc1ccc(N2C=C(C(=O)OC)C(c3ccc(OC)cc3)C(C#N)=C2N)cc1 (stereo not given)", "Measure": "inhibition", "Reported measurement": 24.5}

Proceeding to the next compound to report its inhibition.
Incoming: Look up inhibition for this compound: CC(C)(C)c1ccc(C(=O)Nc2sc3c(c2C(=O)O)CCC3)cc1
Outgoing: 77.3

====

target: Nuclear receptor subfamily 5 group A member 2 (Homo sapiens) (UniProt O00482); assay: LRH-1 (NR5A2) inverse agonists, retest, confirmation, cell-based, luminescence (AID 651613); details: cell-based LRH-1 luciferase reporter, inverse agonism; at 3.6 µM; active compounds read high;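 note: HEK293T cells co-transfected with LRH-1 and StAR promoter luciferase reporter; 0% = vehicle wells and 100% = parental cells lacking receptor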
Sequence (O00482 whole entry, looked up): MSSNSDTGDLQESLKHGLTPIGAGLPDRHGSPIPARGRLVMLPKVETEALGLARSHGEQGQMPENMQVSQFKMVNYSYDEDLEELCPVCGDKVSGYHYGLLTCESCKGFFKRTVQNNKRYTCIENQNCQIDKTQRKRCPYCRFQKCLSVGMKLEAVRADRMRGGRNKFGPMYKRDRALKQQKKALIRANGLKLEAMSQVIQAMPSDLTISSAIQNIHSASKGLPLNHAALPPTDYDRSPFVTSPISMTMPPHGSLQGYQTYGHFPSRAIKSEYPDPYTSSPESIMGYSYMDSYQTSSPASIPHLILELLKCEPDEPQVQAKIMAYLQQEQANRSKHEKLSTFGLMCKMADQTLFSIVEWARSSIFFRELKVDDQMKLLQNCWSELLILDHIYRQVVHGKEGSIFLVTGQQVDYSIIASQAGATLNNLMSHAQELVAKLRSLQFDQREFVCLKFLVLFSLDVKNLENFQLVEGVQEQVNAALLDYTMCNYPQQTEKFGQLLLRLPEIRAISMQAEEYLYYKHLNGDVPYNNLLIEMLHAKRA
Think of 60% as a floor: if inhibition stands on it or above, it is T; beneath it, F.

Below, 3 compounds whose answers are already recorded.
{"Chem smiles": "N#CCc1ccc(OCCCN2CCC(C(O)(c3ccccc3)c3ccccc3)CC2)cc1", "Qualitative label": "F"}
{"Chem smiles": "c1ccc(C[n+]2cccc3c4ccccc4ccc32)cc1", "Qualitative label": "T"}
{"Chem smiles": "C/C(=N\\N1CCN(c2ccc(Cl)cc2)CC1)c1cccc([N+](=O)[O-])c1", "Qualitative label": "F"}

Incoming: Could you tell me if the measured inhibition of CCN(Cc1ccccc1)c1ccc(/C=N/NC(=O)c2cccc(S(=O)(=O)N3CCOCC3)c2)cc1 reaches 60% or more?
Outgoing: T

Incoming: Try this compound next: O=C(COc1ccc(Nc2ccccc2)cc1)Nc1ccncc1
Outgoing: F

Incoming: Try this compound next: Cc1ccccc1C(=O)O/N=C/c1c(N2CCOCC2)n(C)c2ccccc12
Outgoing: T

Incoming: Try this compound next: O=C(c1ccccc1)N1CCN(c2ccc([N+](=O)[O-])c(N3CCOCC3)c2)CC1
Outgoing: F

Incoming: Try this compound next: Cc1ccc(S(=O)(=O)/C(=C/Cl)NC(=O)c2ccccc2)cc1
Outgoing: F

Incoming: Try this compound next: Clc1ccc(-c2nnc(CSc3nnc(-c4cccs4)n3Cc3ccccc3)o2)cc1
Outgoing: F

Incoming: Try this compound next: O=C1C(SCCO)=C(SCCO)C(=O)c2ccccc21
Outgoing: T

====

molecular target: Steroidogenic factor 1 (Homo sapiens) (UniProt Q13285); test: SF1 (NR5A1) inverse agonists, counter-screen for LRH-1 inverse agonist project, cell-based, luminescence, high throughput (AID 651614); settings: cell-based SF1 luciferase reporter, at 3.6 µM;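 note: cells cotransfected with StAR promoter reporter and SF1 expression vector; 0% = vehicle on cells with receptor and 100% = vehicle on cells lacking receptor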
Sequence (Q13285 whole entry, looked up): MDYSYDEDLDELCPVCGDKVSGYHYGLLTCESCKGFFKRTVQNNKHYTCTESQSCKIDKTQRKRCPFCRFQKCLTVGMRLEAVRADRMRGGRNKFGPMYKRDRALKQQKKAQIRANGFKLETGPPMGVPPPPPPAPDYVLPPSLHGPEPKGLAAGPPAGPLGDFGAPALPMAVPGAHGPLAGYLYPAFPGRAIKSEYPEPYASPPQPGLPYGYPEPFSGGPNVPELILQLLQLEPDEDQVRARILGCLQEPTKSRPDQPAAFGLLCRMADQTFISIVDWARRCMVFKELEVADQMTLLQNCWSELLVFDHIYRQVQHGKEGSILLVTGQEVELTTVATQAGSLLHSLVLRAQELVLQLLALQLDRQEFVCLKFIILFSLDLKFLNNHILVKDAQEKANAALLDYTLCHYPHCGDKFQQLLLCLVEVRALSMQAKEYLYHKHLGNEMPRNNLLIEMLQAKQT
Active and inactive are the calls of the source. Cut-off read from the data, not from the text of the source: active = inhibition above about 44%; inactive = the rest.
Response enum: class 1 = active, class 0 = inactive

Below, 2 molecules whose answers are already recorded.
{"Molecule": "Cc1c(Cl)cccc1NC(=O)CS(=O)(=O)c1ccccc1", "Qualitative label": "class 1"}
{"Molecule": "COc1cccc(C2c3cc4c(cc3OC(N3CCCC3)C2C)OCO4)c1O (stereo not drawn)", "Qualitative label": "class 1"}

Pending molecule:
Incoming: Called result for C#Cc1cccc(Nc2nc(NC(C)C)nc3ccsc23)c1
Outgoing: class 1

====

Documented inhibition across a set of compounds
biological target: Nuclear receptor coactivator 1 (Homo sapiens) (UniProt Q15788); test: SRC1 coactivator transcriptional activity inhibitors, confirmation, cell-based, luminescence, quadruplicate (AID 588820); conditions: HEK293 GAL4-SRC1 luciferase reporter, at 3.6 µM, active compounds read high;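 note: 0% = DMSO wells and 100% = gossypol 36 µM treated wells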
Sequence (Q15788 whole entry, looked up, the tested form may be a part): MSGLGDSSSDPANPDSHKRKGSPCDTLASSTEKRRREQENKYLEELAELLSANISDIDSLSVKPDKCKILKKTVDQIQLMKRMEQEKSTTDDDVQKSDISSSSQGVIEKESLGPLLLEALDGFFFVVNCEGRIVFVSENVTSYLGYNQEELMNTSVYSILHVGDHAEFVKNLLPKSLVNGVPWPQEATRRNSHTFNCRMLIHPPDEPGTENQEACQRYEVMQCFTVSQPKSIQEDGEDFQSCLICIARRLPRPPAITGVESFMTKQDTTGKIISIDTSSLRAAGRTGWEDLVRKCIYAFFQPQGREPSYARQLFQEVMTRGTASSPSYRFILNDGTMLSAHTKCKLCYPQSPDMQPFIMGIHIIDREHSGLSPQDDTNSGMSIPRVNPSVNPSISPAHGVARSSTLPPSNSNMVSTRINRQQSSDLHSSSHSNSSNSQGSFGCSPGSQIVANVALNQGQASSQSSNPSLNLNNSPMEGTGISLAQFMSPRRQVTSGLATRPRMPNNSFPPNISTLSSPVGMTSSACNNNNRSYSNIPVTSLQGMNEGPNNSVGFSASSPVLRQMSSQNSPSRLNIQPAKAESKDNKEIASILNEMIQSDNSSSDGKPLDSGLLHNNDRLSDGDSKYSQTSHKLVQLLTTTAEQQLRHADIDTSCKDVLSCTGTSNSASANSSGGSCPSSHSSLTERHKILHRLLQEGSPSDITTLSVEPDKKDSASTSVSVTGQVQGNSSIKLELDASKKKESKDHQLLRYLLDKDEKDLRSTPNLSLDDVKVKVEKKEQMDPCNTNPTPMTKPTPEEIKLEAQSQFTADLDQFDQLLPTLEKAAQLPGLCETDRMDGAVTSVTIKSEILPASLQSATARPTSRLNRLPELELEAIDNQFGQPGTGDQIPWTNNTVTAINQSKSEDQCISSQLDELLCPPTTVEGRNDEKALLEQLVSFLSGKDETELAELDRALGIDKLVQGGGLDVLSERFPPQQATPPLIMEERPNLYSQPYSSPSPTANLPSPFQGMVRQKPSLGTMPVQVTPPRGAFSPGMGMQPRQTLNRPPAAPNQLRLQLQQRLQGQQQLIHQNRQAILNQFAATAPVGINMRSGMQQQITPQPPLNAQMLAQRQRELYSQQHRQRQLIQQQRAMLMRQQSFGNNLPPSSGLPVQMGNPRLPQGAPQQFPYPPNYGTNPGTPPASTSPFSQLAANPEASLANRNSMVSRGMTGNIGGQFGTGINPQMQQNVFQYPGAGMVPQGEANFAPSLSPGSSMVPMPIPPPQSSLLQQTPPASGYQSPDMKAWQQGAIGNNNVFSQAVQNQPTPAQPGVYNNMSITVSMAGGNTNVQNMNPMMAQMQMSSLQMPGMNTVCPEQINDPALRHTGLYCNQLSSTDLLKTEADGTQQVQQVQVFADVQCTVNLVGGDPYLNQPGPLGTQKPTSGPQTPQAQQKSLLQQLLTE
Answer with a number only, understood to be in %.

Check out these entries, answers already filled in.
{"Compound": "CC(C)(C)c1ccc(-n2ncc3c2CCCC3NC(=O)CN2CCOC2=O)cc1 (stereo not given)", "Measure": "inhibition", "Reported measurement": -6.1}
{"Compound": "O=C(NCc1ccco1)c1cccc(NC(=O)c2ccccc2)c1", "Measure": "inhibition", "Reported measurement": 33.7}
{"Compound": "C=CCc1ccccc1OCC(=O)N/N=C/c1ccc(OC(C)=O)cc1OC(C)=O", "Measure": "inhibition", "Reported measurement": 16.6}
{"Compound": "c1ccc(-c2cn(-c3ccccc3)c3ncnc(N4CCCCC4)c23)cc1", "Measure": "inhibition", "Reported measurement": 1.38}

Proceeding to the next compound to report its inhibition.
Incoming: Look up inhibition for this compound: Cc1ccccc1COc1cccc(/C=N/NC(=O)c2nnn(-c3nonc3N)c2C)c1
Outgoing: 7.5

====

Documented inhibition across a set of molecules
target: Nuclear receptor coactivator 1 (Homo sapiens) (UniProt Q15788); test: SRC1 coactivator transcriptional activity inhibitors, confirmation, cell-based, luminescence, quadruplicate (AID 588820); conditions: HEK293 GAL4-SRC1 luciferase reporter, at 3.6 µM, active compounds read high;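 note: 0% = DMSO wells and 100% = gossypol 36 µM treated wells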
Answer with a number only, understood to be in %.

Check out these entries, answers already filled in.
{"Molecule": "COc1ccc2sc3c(=O)[nH]c4ccccc4c3c2c1", "Tgt": "Nuclear receptor coactivator 1 (Homo sapiens) (UniProt Q15788)", "inhibition [%]": 55}
{"Molecule": "C=C1C(=O)O[C@@]23[C@H]1CC[C@@H](C)[C@@H]2CC[C@@]1(C)O[C@@H]31", "Tgt": "Nuclear receptor coactivator 1 (Homo sapiens) (UniProt Q15788)", "inhibition [%]": 1.63}
{"Molecule": "COC(=O)c1cc(O)cc(OC)c1Oc1cc(C)cc(O)c1C(=O)O", "Tgt": "Nuclear receptor coactivator 1 (Homo sapiens) (UniProt Q15788)", "inhibition [%]": 54.2}
{"Molecule": "CCCC(=O)Nc1ccc(C(=O)N/N=C/c2ccc([N+](=O)[O-])o2)cc1", "Tgt": "Nuclear receptor coactivator 1 (Homo sapiens) (UniProt Q15788)", "inhibition [%]": 74.8}
{"Molecule": "COc1ccc2cc3c(N)nn(C(=O)c4cccc([N+](=O)[O-])c4)c3nc2c1", "Tgt": "Nuclear receptor coactivator 1 (Homo sapiens) (UniProt Q15788)", "inhibition [%]": 51.3}
{"Molecule": "O=c1[nH]nnc2c1ncn2C1OC(CO)C(O)C1O (stereo unspecified)", "Tgt": "Nuclear receptor coactivator 1 (Homo sapiens) (UniProt Q15788)", "inhibition [%]": 0.97}
{"Molecule": "O=C(N/N=C/c1sc(N2CCOCC2)nc1-c1ccccc1)c1cccc(S(=O)(=O)N2CCCC2)c1", "Tgt": "Nuclear receptor coactivator 1 (Homo sapiens) (UniProt Q15788)", "inhibition [%]": 50.8}
{"Molecule": "CC1(C)CC(N2CCN(Cc3ccccc3)CC2)=CC(=[N+]2CCCCC2)C1", "Tgt": "Nuclear receptor coactivator 1 (Homo sapiens) (UniProt Q15788)", "inhibition [%]": -6.45}

Incoming: Look up inhibition for this molecule: O=C1C(Nc2ccccc2)=C(N2CCCCC2)C(=O)c2ccccc21
Outgoing: 44.4

Incoming: Try this molecule next: O=C(CNC(=O)c1ccco1)Nc1ccncc1
Outgoing: -25.7

Incoming: Try this molecule next: COc1ccc2[nH]c3c(C)c4ccncc4c(C)c3c2c1
Outgoing: 24.4

====

target: Nuclear receptor coactivator 3 (Homo sapiens) (UniProt Q9Y6Q9); experiment: SRC3 coactivator transcriptional activity inhibitors, confirmation, cell-based, luminescence, quadruplicate (AID 588792); conditions: HEK293 GAL4-SRC3 luciferase reporter, at 3.6 µM, active compounds read high;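 note: 0% = DMSO treated cells and 100% = gossypol at 36 µM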
Sequence (Q9Y6Q9 whole entry, looked up, the tested form may be a part): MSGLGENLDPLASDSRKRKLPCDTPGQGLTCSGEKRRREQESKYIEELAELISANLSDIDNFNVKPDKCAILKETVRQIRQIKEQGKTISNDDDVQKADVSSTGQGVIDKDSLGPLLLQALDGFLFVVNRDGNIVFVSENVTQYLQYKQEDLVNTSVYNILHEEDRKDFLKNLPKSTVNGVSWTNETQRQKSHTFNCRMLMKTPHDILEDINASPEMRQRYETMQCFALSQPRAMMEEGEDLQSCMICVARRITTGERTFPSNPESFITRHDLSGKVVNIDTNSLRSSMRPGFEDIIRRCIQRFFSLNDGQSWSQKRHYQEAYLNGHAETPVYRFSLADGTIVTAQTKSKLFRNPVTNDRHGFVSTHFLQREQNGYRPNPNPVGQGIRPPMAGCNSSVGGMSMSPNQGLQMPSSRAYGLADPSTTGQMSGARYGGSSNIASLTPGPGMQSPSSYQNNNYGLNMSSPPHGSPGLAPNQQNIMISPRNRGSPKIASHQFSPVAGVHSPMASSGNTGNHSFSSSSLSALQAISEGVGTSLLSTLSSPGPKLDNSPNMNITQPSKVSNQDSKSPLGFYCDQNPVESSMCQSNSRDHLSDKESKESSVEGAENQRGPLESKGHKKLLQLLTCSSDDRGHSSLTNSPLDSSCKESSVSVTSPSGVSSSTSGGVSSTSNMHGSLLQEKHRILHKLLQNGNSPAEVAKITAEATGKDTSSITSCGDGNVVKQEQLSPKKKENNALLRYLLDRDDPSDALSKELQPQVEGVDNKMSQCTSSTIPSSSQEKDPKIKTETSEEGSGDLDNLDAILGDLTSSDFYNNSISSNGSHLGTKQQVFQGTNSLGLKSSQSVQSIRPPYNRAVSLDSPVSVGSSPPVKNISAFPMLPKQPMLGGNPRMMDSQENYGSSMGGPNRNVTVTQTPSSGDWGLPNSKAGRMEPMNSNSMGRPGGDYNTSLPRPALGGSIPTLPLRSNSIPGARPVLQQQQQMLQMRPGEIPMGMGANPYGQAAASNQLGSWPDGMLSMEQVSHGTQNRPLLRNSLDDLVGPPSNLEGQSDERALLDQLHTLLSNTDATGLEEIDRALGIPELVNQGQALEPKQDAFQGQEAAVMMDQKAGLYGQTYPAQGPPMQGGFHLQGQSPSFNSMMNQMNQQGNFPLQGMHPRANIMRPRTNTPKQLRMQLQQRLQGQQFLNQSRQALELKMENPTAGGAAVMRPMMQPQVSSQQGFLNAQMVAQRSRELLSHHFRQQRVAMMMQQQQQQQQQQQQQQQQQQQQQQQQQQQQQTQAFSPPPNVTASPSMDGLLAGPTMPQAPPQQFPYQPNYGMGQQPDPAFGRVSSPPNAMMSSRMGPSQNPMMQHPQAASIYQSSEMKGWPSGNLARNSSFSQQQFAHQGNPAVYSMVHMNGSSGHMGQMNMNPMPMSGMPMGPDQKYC
Documented inhibition across a set of compounds
Answer with a number only, understood to be in %.

Check out these entries, answers already filled in.
{"Compound": "CC(C)C(=O)N1CCN(c2ccc(NC(=O)COc3ccccc3[N+](=O)[O-])cc2)CC1", "Reported measurement": 12.7}
{"Compound": "COc1ccc(NC(=O)/C(Cl)=C(/Cl)S(=O)(=O)Cc2ccccc2)cn1", "Reported measurement": -15.3}
{"Compound": "CCCC(=O)NC(c1ccc(C(C)C)cc1)c1ccc2cccnc2c1O (configuration not stated)", "Reported measurement": 74.5}
{"Compound": "Cc1ccc(-n2nnnc2Sc2ccc(S(=O)(=O)NCCN(C)C)cc2[N+](=O)[O-])cc1", "Reported measurement": 33.8}
{"Compound": "O=C(CCC1CCCC1)Nc1ccc(C(=O)NCc2cccnc2)cc1", "Reported measurement": 88.5}
{"Compound": "NC(=S)NN=Cc1nccc2c(N)cccc12", "Reported measurement": 72.3}

Incoming: Look up inhibition for this compound: Cc1[nH]ccc2c1[nH]c1cc(=O)ccc12
Outgoing: 56

Incoming: Try this compound next: CN([C@@H](Cc1ccc(OS(=O)(=O)c2cccc3cnccc23)cc1)C(=O)N1CCN(c2ccccc2)CC1)S(=O)(=O)c1cccc2cnccc12
Outgoing: -2.66

Incoming: Try this compound next: COc1ccccc1/C=C/C(=O)c1c2c(c(C)[nH]c1=O)CCCC2
Outgoing: 46.6

Incoming: Try this compound next: CCC1C/C(=C\c2cccnc2)C(=O)/C(=C/c2cccnc2)C1 (configuration not stated)
Outgoing: 15.6

Incoming: Try this compound next: COc1ccc(-c2c[n+](CC(=O)OC3CC(C)CCC3C(C)C)c3n2CCC3)cc1 (configuration not stated)
Outgoing: 22.9

Incoming: Try this compound next: CC1(C)CC[C@]2(C(=O)n3ccnc3)CC[C@]3(C)[C@H](C(=O)C=C4[C@@]5(C)C=C(C#N)C(=O)C(C)(C)[C@@H]5CC[C@]43C)[C@@H]2C1
Outgoing: 93.8

Incoming: Try this compound next: CCOc1ccc(OCc2ccc(C(=O)NN=Cc3ccc[nH]3)cc2)cc1
Outgoing: 38.9

Incoming: Try this compound next: O=C(O)c1ccccc1C(=O)Nc1ccc(Oc2cccc3ccccc23)cc1
Outgoing: 26

Incoming: Try this compound next: O=C(CCCc1nc(-c2ccccc2Cl)no1)NC1CCCC1
Outgoing: 36.4

Incoming: Try this compound next: O=[N+]([O-])c1ccc2ncnc(N3CCN(Cc4ccc5c(c4)OCO5)CC3)c2c1
Outgoing: 74.2

Incoming: Try this compound next: Cc1cc(C(=O)CN2C(=O)c3ccccc3S2(=O)=O)c(C)n1CC1CCCO1 (configuration not stated)
Outgoing: 82.9

Incoming: Try this compound next: Nc1ccc(-c2cc3ccccc3oc2=O)cc1
Outgoing: 43.5

Incoming: Try this compound next: CCN(CC)c1ccc(/C=N/NC(=O)CCC(=O)NCc2ccccc2)c(O)c1
Outgoing: 22.7

Incoming: Try this compound next: COc1ccc(-n2cc(-c3ccccc3)[n+]3c2CCCCC3)cc1
Outgoing: 24.8
